Tested on: HEK293 cells
Experimental Details: Preliminary screening as mRNA vectors, EGFP mRNA transfection of HEK293 cells
Type: cell-based
Experimental Context: EGFP mRNA 50 ng per well, 96-well plates; percentage of GFP fluorescent cells relative to total number of cells (Hoechst)
Readout: Absolute mRNA transfection efficiency in HEK293 cells (%)
Provide the reading as a plain figure in %.

Prompt: Requested field: Absolute mRNA transfection efficiency in HEK293 cells. Item: CCCCCCCCCCCCCCCCNc1nc(NCCCN(C)C)nc(SCCCCCCC)n1
Completion: 44.8

Others:
Prompt: Absolute mRNA transfection efficiency in HEK293 cells for CCCCCCCCCCCSc1nc(NCCCCCCCC)nc(NCC2CCN(C)CC2)n1 ?
Completion: 46.1

Prompt: Given the molecule CCCCCCCCCCSc1nc(NCC2CCN(C)CC2)nc(SCCCCCC)n1 , what is its reported Absolute mRNA transfection efficiency in HEK293 cells?
Completion: 22.4

Prompt: Record request: Absolute mRNA transfection efficiency in HEK293 cells value, item CCCCCCCCCCCCCCCCCCNc1nc(NCCN2CCOCC2)nc(SCCCCCCCCCCCC)n1
Completion: 0.8

----------
Some molecules, each annotated with its measured Absolute mRNA transfection efficiency in HEK293 cells.
Tested on: HEK293 cells
Experimental Details: Preliminary screening as mRNA vectors, EGFP mRNA transfection of HEK293 cells
Assay type: cell-based
Experimental Context: HEK293 cells, 96-well plates, EGFP mRNA 50 ng per well; percentage of GFP fluorescent cells relative to total number of cells (Hoechst)
Give the value in % but do not write % after it.

Prompt: Recall the recorded Absolute mRNA transfection efficiency in HEK293 cells for CCCCCCCCCCCCCCCSc1nc(NCCN2CCCC2)nc(SCCCCCCCCCCCCCCC)n1 with HEK293 cells and state it.
Completion: 0.2

Next:
Prompt: Given the entry CCCCCCCCCNc1nc(NCCCCCCCC)nc(NCCN2CCN(C)CC2)n1 , what Absolute mRNA transfection efficiency in HEK293 cells was observed with HEK293 cells?
Completion: 0.0

Prompt: What measured Absolute mRNA transfection efficiency in HEK293 cells is associated with CCCCCCCCCCCCCCSc1nc(NCCCN2CCN(C)CC2)nc(SCCCCCCCCCCCCCC)n1 on HEK293 cells?
Completion: 0.0

----------
Test system: HEK293 cells
Experimental Details: Preliminary screening as mRNA vectors, EGFP mRNA transfection of HEK293 cells
Assay type: cell-based
Experimental Context: HEK293 cells, 96-well plates, EGFP mRNA 50 ng per well; percentage of GFP fluorescent cells relative to total number of cells (Hoechst)
Readout: Absolute mRNA transfection efficiency in HEK293 cells (%)
Respond numerically; units are % and should not be typed.

See these solved cases before continuing.
Prompt: Quick one: Absolute mRNA transfection efficiency in HEK293 cells of CCCCCCCCCCCCCCCCSc1nc(NCCN2CCCC2)nc(SCCCCCCCCCCCCCCC)n1 ?
Completion: 0.2

Prompt: What Absolute mRNA transfection efficiency in HEK293 cells value was documented for this compound, CCCCCCCCCCCCCCCCCCSc1nc(NCC2CCN(C)CC2)nc(SCCCCCCCCCCCCCCC)n1 ?
Completion: 1.8

Prompt: # query: Absolute mRNA transfection efficiency in HEK293 cells of entry CCCCCCCCCCCSc1nc(NCCN(CC)CC)nc(SCCCCCCCCCC)n1
Completion: 1.8

Pending compound:
Prompt: I would be grateful if you could share the reported Absolute mRNA transfection efficiency in HEK293 cells for CCCCCCCCCCCCSc1nc(NCCN2CCCC2)nc(SCCCCCCCCCCCC)n1 .
Completion: 11.0

----------
Tested on: HEK293 cells
Experimental Details: Preliminary screening as DNA vectors, GFP transfection of HEK293 cells
Assay type: cell-based
Experimental Context: amino lipid/DOPE liposome with 75 ng plasmid DNA (psin-EGFP-IRES-Puro); number of GFP-expressing cells divided by total nuclei (Hoechst)
Description: Cell line: HEK293 cells (ATCC CRL-1573™) Medium: DMEM supplemented with 10% fetal bovine serum (Invitrogen) Mode of screening: cell transfection on 96-well plates Detection (readout): percentage of the number of GFP fluorescent cells relative to the total number of cells (the total number of cells was measured using nucleus dye Hoechst—see FIG. 2). […] 4. […] The absolute transfection efficiency was calculated as follows: […]
Readout: Absolute DNA transfection efficiency in HEK293 cells (%)
Report the figure in % without appending any unit label.

Prompt: Returns the measured Absolute DNA transfection efficiency in HEK293 cells for the input compound. Input: CCCCCCCCCCCCCNc1nc(NCCN2CCCC2)nc(SCCCCCCCCC)n1
Completion: 31.6

Prompt: What value of measured Absolute DNA transfection efficiency in HEK293 cells is listed for CCCCCCCCCCCCNc1nc(NCC2CCN(C)CC2)nc(SCCCCCCCCCCC)n1 ?
Completion: 4.7

Prompt: What measured Absolute DNA transfection efficiency in HEK293 cells goes with CCCCCCCCCCCNc1nc(NCCN2CCCC2)nc(SCCCCCC)n1 ?
Completion: 2.8

Prompt: Data request, read-out Absolute DNA transfection efficiency in HEK293 cells, for CCCCCCCCCCCCCNc1nc(NCCN2CCOCC2)nc(SCCCCCCC)n1 [S7N13 D2]
Completion: 22.1

Others:
Prompt: Reported Absolute DNA transfection efficiency in HEK293 cells for CCCCCCCCCCCCN(CCCCCCCCCCCC)c1nc(NCCCN2CCN(C)CC2)nc(SCCCCCCCCCC)n1 : what is it?
Completion: 0.5

Prompt: Any idea what its Absolute DNA transfection efficiency in HEK293 cells is? The compound is CCCCCCCCCCCCCCCSc1nc(NCCCCCCCCCCCCC)nc(NCCN(C)C)n1 [S15N13 D1]
Completion: 0.4

Prompt: Consider the compound shown here: CCCCCCCCCCCNc1nc(NCCN2CCOCC2)nc(SCCCCCCCCC)n1 [S9N11 D2] What is its recorded Absolute DNA transfection efficiency in HEK293 cells?
Completion: 16.2

Prompt: # Absolute DNA transfection efficiency in HEK293 cells lookup, item CCCCCCCCCCCCCCCCNc1nc(NCCN2CCN(C)CC2)nc(SCCCCCCCCCCCCCCC)n1
Completion: 0.2

Prompt: Suppose we examine the compound CCCCCCCCCCCCSc1nc(NCCCCCC)nc(NCCCN2CCN(C)CC2)n1 ; what Absolute DNA transfection efficiency in HEK293 cells value has been reported?
Completion: 0.3

----------
Test system: HEK293 cells
Experimental Details: Preliminary screening as mRNA vectors, EGFP mRNA transfection of HEK293 cells
Assay type: cell-based
Experimental Context: EGFP mRNA 50 ng per well, 96-well plates; percentage of GFP fluorescent cells relative to total number of cells (Hoechst)
Readout: Absolute mRNA transfection efficiency in HEK293 cells
Record the result as a number with its unit.

Prompt: Look up Absolute mRNA transfection efficiency in HEK293 cells: CCCCCCCCCCCCCCCSc1nc(NCCCCCCCC)nc(NCCCN2CCN(C)CC2)n1
Completion: 10.8%

Prompt: Consider the molecule CCCCCCCCCCCCN(CCCCCCCCCCCC)c1nc(NCCN2CCN(C)CC2)nc(SCCCCCCCCC)n1 and give its measured Absolute mRNA transfection efficiency in HEK293 cells.
Completion: 0.4%

Prompt: Which Absolute mRNA transfection efficiency in HEK293 cells reading was recorded for the molecule CCCCCCCCCCCCCCSc1nc(NCCCCCCCCCCCC)nc(NCCN(C)C)n1 ?
Completion: 9.6%

Prompt: Given the entry CCCCCCCCCCCCCCSc1nc(NCCN2CCCC2)nc(SCCCCCC)n1 , report its measured Absolute mRNA transfection efficiency in HEK293 cells.
Completion: 0.3%

Prompt: If you can, please state the reported Absolute mRNA transfection efficiency in HEK293 cells value of CCCCCCCCCCCSc1nc(NCCCN2CCN(C)CC2)nc(SCCCCCCCC)n1 .
Completion: 97.6%

Next:
Prompt: // returns reported Absolute mRNA transfection efficiency in HEK293 cells for input CCCCCCCCCCCCNc1nc(NCCCN2CCOCC2)nc(SCCCCCCCCCC)n1
Completion: 0.1%

Prompt: Need Absolute mRNA transfection efficiency in HEK293 cells of CCCCCCCCCCCCCCSc1nc(NCCCN2CCN(C)CC2)nc(SCCCCCC)n1 , thanks.
Completion: 35.8%

Prompt: For the molecule CCCCCCCCCCCCCCCNc1nc(NCCN2CCN(C)CC2)nc(SCCCCCCCCCC)n1 , what Absolute mRNA transfection efficiency in HEK293 cells is on record?
Completion: 1.8%

----------
System: HEK293 cells
Experimental Details: Preliminary screening as DNA vectors, GFP transfection of HEK293 cells
Type: cell-based
Experimental Context: amino lipid/DOPE liposome with 75 ng plasmid DNA (psin-EGFP-IRES-Puro); number of GFP-expressing cells divided by total nuclei (Hoechst)
Property: Absolute DNA transfection efficiency in HEK293 cells; scope: individual molecules

Please review the following examples before continuing.
Prompt: Give the reported Absolute DNA transfection efficiency in HEK293 cells for CCCCCCCCCCCCNc1nc(NCCN2CCN(C)CC2)nc(SCCCCCCCCC)n1 (system: HEK293 cells).
Completion: 48.2%

Prompt: Record CCCCCCCCCSc1nc(NCCCCCC)nc(NCCCN(C)C)n1 : what is its Absolute DNA transfection efficiency in HEK293 cells with HEK293 cells?
Completion: 8.8%

Prompt: Lab request: please report Absolute DNA transfection efficiency in HEK293 cells under test system HEK293 cells for CCCCCCCCCCCCCNc1nc(NCCN2CCOCC2)nc(SCCCCCC)n1 [S6N13 D2]
Completion: 1.9%

Prompt: # returns recorded Absolute DNA transfection efficiency in HEK293 cells (system: HEK293 cells) for CCCCCCCCCCCSc1nc(NCCCCCCCCC)nc(NCCCN(C)C)n1
Completion: 40.1%

Pending molecule:
Prompt: Notebook entry, HEK293 cells assay: Absolute DNA transfection efficiency in HEK293 cells of CCCCCCCCCCCCCCSc1nc(NCCCCCCC)nc(NCCN(C)C)n1 [S14N7 D1] = ?
Completion: 12.5%
